Source of measurements: patent EP1903056A2

# Test system: HLA-B*5401 (human)
# Experiment: competition vs 125I probe peptide, purified HLA
# Protocol conditions: remark: other sources report otherwise
Quantity kind: log10(IC50) (log10 of the value in nM)

• KPYDGIPA [Her2/neu.921] = 1.46
• PPSPREGPLPA [Her2/neu.1149] = 1.92
• YPNASLLI [CEA.102] = 2.14
• IPWQRLLLTA [CEA.13] = 1.51
• IPWQRLLLTI [CEA.13I10] = 2.43
• KPYDGIPI [Her2/neu.92118] = 2.48
• LPQPPICTI (modifications not checked) [Her2/neu.941] = 1.28
